- ASSAY_METHOD_TEXT: Pharmacokinetics and tissue distribution after single intravenous administration
- Assay type: in vivo, mouse
- PARTICULARS: ICR, mouse, iv; mice, single i.v. 10 mg/kg; Liver; read-out: t1/2 (converted)
MEASUREMENT_KIND: half-life (h)
Please state the figure in h; there is no need to write the unit.

Documented half-life of O=C(CCc1ccc(C(F)(F)F)cc1)O[C@@H]1C(=O)NCCc2c([nH]c3ccccc23)[C@H]1c1ccc(C(F)(F)F)cc1 [(+)3C-20] : 1.33

---

- ASSAY_METHOD_TEXT: Pharmacokinetics and tissue distribution after single intravenous administration
- Assay type: in vivo, mouse
- PARTICULARS: ICR, mouse, lung, iv; mice, single i.v. 10 mg/kg; 24 h; read-out: Concentration of (+)3C-20, Lung
MEASUREMENT_KIND: concentration at 24 h (ng/g)
Please state the figure in ng/g; there is no need to write the unit.

Documented concentration at 24 h of O=C(CCc1ccc(C(F)(F)F)cc1)O[C@@H]1C(=O)NCCc2c([nH]c3ccccc23)[C@H]1c1ccc(C(F)(F)F)cc1 [(+)3C-20] : 23.8

---

- ASSAY_METHOD_TEXT: Pharmacokinetics and tissue distribution after single intravenous administration
- Assay type: in vivo, mouse
- PARTICULARS: ICR, mouse, lung, iv; mice, single i.v. 10 mg/kg; 2 h; read-out: Concentration of (+)3C-20, Lung
MEASUREMENT_KIND: concentration at 2 h (ng/g)
Please state the figure in ng/g; there is no need to write the unit.

Documented concentration at 2 h of O=C(CCc1ccc(C(F)(F)F)cc1)O[C@@H]1C(=O)NCCc2c([nH]c3ccccc23)[C@H]1c1ccc(C(F)(F)F)cc1 [(+)3C-20] : 2300

---

- ASSAY_METHOD_TEXT: Pharmacokinetics and tissue distribution after single intravenous administration
- Assay type: in vivo, mouse
- PARTICULARS: ICR, mouse, lung, iv; mice, single i.v. 10 mg/kg; 0.5 h; read-out: Concentration of (+)3C-20, Lung
MEASUREMENT_KIND: concentration at 0.5 h (ng/g)
Please state the figure in ng/g; there is no need to write the unit.

Documented concentration at 0.5 h of O=C(CCc1ccc(C(F)(F)F)cc1)O[C@@H]1C(=O)NCCc2c([nH]c3ccccc23)[C@H]1c1ccc(C(F)(F)F)cc1 [(+)3C-20] : 7780

---

- ASSAY_METHOD_TEXT: Pharmacokinetics and tissue distribution after single intravenous administration
- Assay type: in vivo, mouse
- PARTICULARS: ICR, mouse, iv; mice, single i.v. 10 mg/kg; Kidney
MEASUREMENT_KIND: AUC(0-t)

Documented AUC(0-t) of O=C(CCc1ccc(C(F)(F)F)cc1)O[C@@H]1C(=O)NCCc2c([nH]c3ccccc23)[C@H]1c1ccc(C(F)(F)F)cc1 [(+)3C-20] : 3780 ng·h/mL

---

- TARGET: recombinant human VDAC1 protein (rhVDAC1) (Homo sapiens)
- Construct: purchased Atagenix, China
- Sequence (P21796 whole entry): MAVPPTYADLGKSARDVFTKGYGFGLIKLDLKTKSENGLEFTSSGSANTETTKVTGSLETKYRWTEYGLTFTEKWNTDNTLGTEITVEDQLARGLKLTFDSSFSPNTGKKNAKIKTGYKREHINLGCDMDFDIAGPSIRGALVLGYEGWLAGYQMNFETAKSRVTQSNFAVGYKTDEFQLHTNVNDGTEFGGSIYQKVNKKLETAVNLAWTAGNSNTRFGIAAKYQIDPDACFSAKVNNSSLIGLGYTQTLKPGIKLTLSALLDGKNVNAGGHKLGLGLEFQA
- ASSAY_METHOD_TEXT: Surface plasmon resonance (SPR)
- Format: binding
- PARTICULARS: rhVDAC1
MEASUREMENT_KIND: Kd

Documented Kd of O=C(CCc1ccc(C(F)(F)F)cc1)O[C@@H]1C(=O)NCCc2c([nH]c3ccccc23)[C@H]1c1ccc(C(F)(F)F)cc1 [(+)3C-20] : ~3.95 µM
